- System: Uromyces phaseoli
- test method notes: Spore germination test
- Assay type: cell-based
- measurement setup: UP, 2.5 ppm, 48 hours
Catalogue of Spore Germination Rating values

Data request: Please give measured Spore Germination Rating of the following entry: CC(=O)Nc1cccc(Oc2nsnc(Cl)c2=O)c1
Data returned: 3 (60-80)

Data request: Please give measured Spore Germination Rating of the following entry: O=c1c(Cl)nsnc1Oc1ccc(O)cc1
Data returned: 0 (0-10)

Data request: Please give measured Spore Germination Rating of the following entry: Nc1ccc(Oc2nsnc(Cl)c2=O)cc1
Data returned: 3 (60-80)

Data request: Please give measured Spore Germination Rating of the following entry: O=c1c(Cl)nsnc1Oc1cccc2ccccc12
Data returned: 0 (0-10)

====

Catalogue of pest or weed control at 150 ppm, 3.8 mg/pot values
- Test system: Fusarium solani
- test method notes: Soil treatment, bean root rot
- Assay type: in vivo
- measurement setup: Fusarium solani, soil, 336 h; 150 ppm suspension, 3.8 mg active per pot; read-out: Percent Disease Control, seed/soil, bean root rot
Report only the number, with the unit % understood.

{"columns": ["molecule", "meas value"],
 "data": [
  ["CC(=O)Nc1cccc(Oc2nsnc(Cl)c2=O)c1 [Compound 42]", 90],
  ["Cc1ccc(Oc2nsnc(Cl)c2=O)cc1 [Compound 3]", 80],
  ["Nc1ccc(Oc2nsnc(Cl)c2=O)cc1 [Compound 26]", 0],
  ["CCCCOc1ccc(Oc2nsnc(Cl)c2=O)cc1 [Compound 6]", 0]
]}

Could you now look at the following molecule, please?
Data request: Please give measured pest or weed control at 150 ppm, 3.8 mg/pot of the following entry: O=c1c(Cl)nsnc1Cl [Compound 1, 3,5-dichloro-4H--1,2,6-thiadiazin-4-one]
Data returned: 0

====

- Test system: Erysiphe polygoni
- test method notes: Spore germination test
- Format: cell-based
- measurement setup: EP, 10 ppm, 48 hours
readout type: Spore Germination Rating

{"columns": ["compound", "Spore Germination Rating"],
 "data": [
  ["C[S+]([O-])c1ccc(Oc2nsnc(Cl)c2=O)cc1 (stereo not drawn) [Compound 40]", "4 (80-100)"]
]}

Data request: Please give measured Spore Germination Rating of the following entry: Cc1cc(Oc2nsnc(Cl)c2=O)ccc1Cl [Compound 54]
Data returned: 0 (0-10)

Data request: Please give measured Spore Germination Rating of the following entry: O=c1c(Cl)nsnc1Oc1ccccc1 [Compound 2]
Data returned: 3 (60-80)

Data request: Please give measured Spore Germination Rating of the following entry: O=c1c(Cl)nsnc1Oc1ccccc1Cl [Compound 14]
Data returned: 2 (40-60)

Data request: Please give measured Spore Germination Rating of the following entry: O=c1c(Cl)nsnc1Oc1ccccc1Br [Compound 34]
Data returned: 0 (0-10)

Data request: Please give measured Spore Germination Rating of the following entry: CC(=O)c1cccc(Oc2nsnc(Cl)c2=O)c1 [Compound 48]
Data returned: 2 (40-60)

====

- System: Phytophthora infestans
- Assay type: cell-based
- measurement setup: PI, 2.5 ppm, 48 hours
Catalogue of Spore Germination Rating values

Answered examples (5):
{"columns": ["molecule", "tested system", "Spore Germination Rating"],
 "data": [
  ["CC(C)(C)c1ccc(Oc2nsnc(Cl)c2=O)cc1 [Compound 4]", "Phytophthora infestans", "3 (60-80)"],
  ["O=c1c(Cl)nsnc1Oc1ccc(O)cc1 [Compound 35]", "Phytophthora infestans", "0 (0-10)"],
  ["O=c1c(Cl)nsnc1Oc1ccccc1Cl [Compound 14]", "Phytophthora infestans", "0 (0-10)"],
  ["COc1cc(Oc2nsnc(Cl)c2=O)cc(OC)c1C(C)=O [Compound 61]", "Phytophthora infestans", "4 (80-100)"],
  ["Cc1cccc(Oc2nsnc(Cl)c2=O)c1 [Compound 21]", "Phytophthora infestans", "1 (10-40)"]
]}

Data request: State, for Phytophthora infestans, measured Spore Germination Rating of the molecule listed here: O=c1c(Cl)nsnc1Oc1cccc(C(F)(F)F)c1 [Compound 44]
Data returned: 0 (0-10)

====

- System: Pyricularia oryzae
- Type: cell-based
- measurement setup: PO, 1.0 ppm, 48 hours
Catalogue of Spore Germination Rating values

Data request: Please give measured Spore Germination Rating of the following entry: C[S+]([O-])c1ccc(Oc2nsnc(Cl)c2=O)cc1 (stereo not shown)
Data returned: 4 (80-100)

Data request: Please give measured Spore Germination Rating of the following entry: O=C(O)c1ccc(Oc2nsnc(Cl)c2=O)cc1
Data returned: 4 (80-100)

Data request: Please give measured Spore Germination Rating of the following entry: N#CCc1ccc(Oc2nsnc(Cl)c2=O)cc1
Data returned: 0 (0-10)

Data request: Please give measured Spore Germination Rating of the following entry: CSc1ccc(Oc2nsnc(Cl)c2=O)cc1
Data returned: 2 (40-60)

Data request: Please give measured Spore Germination Rating of the following entry: COc1ccc(Cl)c(Oc2nsnc(Cl)c2=O)c1
Data returned: 3 (60-80)

Data request: Please give measured Spore Germination Rating of the following entry: Cc1cccc(C)c1Oc1nsnc(Cl)c1=O
Data returned: 3 (60-80)

Data request: Please give measured Spore Germination Rating of the following entry: O=C(Nc1ccccc1)Oc1ccc(Oc2nsnc(Cl)c2=O)cc1
Data returned: 4 (80-100)

Data request: Please give measured Spore Germination Rating of the following entry: N#Cc1ccc(Oc2nsnc(Cl)c2=O)cc1
Data returned: 0 (0-10)

Data request: Please give measured Spore Germination Rating of the following entry: O=C(Nc1ccccc1)Nc1ccc(Oc2nsnc(Cl)c2=O)cc1
Data returned: 4 (80-100)

Data request: Please give measured Spore Germination Rating of the following entry: Cc1ccc(Oc2nsnc(Cl)c2=O)c(Br)c1
Data returned: 0 (0-10)

====

Catalogue of Spore Germination Rating values
- Test system: Uromyces phaseoli
- test method notes: Spore germination test
- Format: cell-based
- measurement setup: UP, 2.5 ppm, 48 hours

{"columns": ["compound", "tested system", "Spore Germination Rating"],
 "data": [
  ["C[S+]([O-])c1ccc(Oc2nsnc(Cl)c2=O)cc1 (stereo not shown) [Compound 40]", "Uromyces phaseoli", "2 (40-60)"]
]}

Data request: Please give measured Spore Germination Rating of the following entry: O=c1c(Cl)nsnc1Oc1ccccc1 [Compound 2]
Data returned: 2 (40-60)

Data request: Please give measured Spore Germination Rating of the following entry: O=C(O)c1ccc(Oc2nsnc(Cl)c2=O)cc1 [Compound 50]
Data returned: 4 (80-100)

Data request: Please give measured Spore Germination Rating of the following entry: O=c1c(Cl)nsnc1Oc1cc(Cl)cc(Cl)c1 [Compound 20]
Data returned: 0 (0-10)

Data request: Please give measured Spore Germination Rating of the following entry: O=C(O)Cc1ccccc1Oc1nsnc(Cl)c1=O [Compound 45]
Data returned: 4 (80-100)

Data request: Please give measured Spore Germination Rating of the following entry: CC(C)(C)c1ccc(Oc2nsnc(Cl)c2=O)cc1 [Compound 4]
Data returned: 4 (80-100)

Data request: Please give measured Spore Germination Rating of the following entry: Cc1ccc(Oc2nsnc(Cl)c2=O)cc1 [Compound 3]
Data returned: 1 (10-40)

Data request: Please give measured Spore Germination Rating of the following entry: O=c1c(Cl)nsnc1Oc1cccc(Cl)c1 [Compound 13]
Data returned: 0 (0-10)

Data request: Please give measured Spore Germination Rating of the following entry: CCCCNC(=O)n1c(NC(=O)OC)nc2ccccc21 [Benomyl, reference compound]
Data returned: 1 (10-40)

Data request: Please give measured Spore Germination Rating of the following entry: Cc1cc(Oc2nsnc(Cl)c2=O)ccc1Cl [Compound 54]
Data returned: 0 (0-10)

Data request: Please give measured Spore Germination Rating of the following entry: O=C(OCc1ccccc1)Oc1ccc(Oc2nsnc(Cl)c2=O)cc1 [Compound 38]
Data returned: 4 (80-100)

Data request: Please give measured Spore Germination Rating of the following entry: O=c1c(Cl)nsnc1Oc1ccc(Cl)cc1Cl [Compound 17]
Data returned: 0 (0-10)

Data request: Please give measured Spore Germination Rating of the following entry: CC(=O)c1cccc(Oc2nsnc(Cl)c2=O)c1 [Compound 48]
Data returned: 0 (0-10)

Data request: Please give measured Spore Germination Rating of the following entry: Cc1ccc(Oc2nsnc(Cl)c2=O)c(Br)c1 [Compound 57]
Data returned: 0 (0-10)

Data request: Please give measured Spore Germination Rating of the following entry: O=C(Nc1ccccc1)Nc1ccc(Oc2nsnc(Cl)c2=O)cc1 [Compound 29]
Data returned: 2 (40-60)

====

- System: Pyricularia oryzae
- test method notes: microbe, parasite or virus in culture
- Type: cell-based
- measurement setup: Pyricularia oryzae, 72 h, read-out: Percent Fungus Growth Inhibition, PO, 20 ppm, 72 hours
Assign y whenever inhibition at 20 ppm does not fall below 60%; assign n whenever it does.

Answered cases to consult:
{"columns": ["structure", "assigned class"],
 "data": [
  ["Cc1cc(Cl)c(Oc2nsnc(Cl)c2=O)cc1C", "n"],
  ["COc1ccc(Cl)c(Oc2nsnc(Cl)c2=O)c1", "y"],
  ["CCOC(=O)c1ccc(Oc2nsnc(Cl)c2=O)cc1", "y"],
  ["O=c1c(Cl)nsnc1Oc1ccccc1Br", "y"],
  ["O=c1c(Cl)nsnc1Oc1cccc(Cl)c1Cl", "y"],
  ["CC(=O)Nc1ccccc1Oc1nsnc(Cl)c1=O", "n"],
  ["CNC(=O)Nc1ccc(Oc2nsnc(Cl)c2=O)cc1", "n"],
  ["O=c1c(Cl)nsnc1Oc1c(Cl)cccc1Cl", "n"],
  ["O=c1c(Cl)nsnc1Oc1ccc([N+](=O)[O-])cc1Cl", "y"]
]}

Data request: Please tell me: is the molecule Cc1cc(Cl)ccc1Oc1nsnc(Cl)c1=O at or over 60% in terms of inhibition at 20 ppm?
Data returned: n
